experiment.summary: NCI Yeast Anticancer Drug Screen. Data for the rad50 strain (AID 155);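 further: 0% = growth of vehicle-only cultures of the same strain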
applied.conditions: S. cerevisiae rad50 strain growth inhibition; at 50.0 µM; stronger effect = higher value
The panel holds about 79,000 compounds, 15% with a hit somewhere; the sample as a whole holds those more often.
property.name: growth inhibition (%)
Just the number in %, nothing appended.

Reference set, count: 10
>  <compound>
CC(=O)O[C@H]1C[C@]2(C)C(CCC3O[C@@]32C)[C@@]2(CC(c3ccoc3)OC2O)[C@@H]1C (stereo partly specified)

>  <readout.units>
%

>  <growth inhibition>
-10.8

$$$$
>  <compound>
N=N/C(=C\c1c(O)[nH]c2ccccc12)c1ccccc1

>  <readout.units>
%

>  <growth inhibition>
-7.35

$$$$
>  <compound>
O=C(O)C(c1ccccc1)C(F)(F)F (stereo unspecified)

>  <readout.units>
%

>  <growth inhibition>
-1.45

$$$$
>  <compound>
COc1ccccc1C(=O)C(CN(C)C)CN(C)C

>  <readout.units>
%

>  <growth inhibition>
-2.5

$$$$
>  <compound>
CCCCNc1ncnc2c1cnn2C

>  <readout.units>
%

>  <growth inhibition>
-3.2

$$$$
>  <compound>
CC1=C/C(=C(/c2cccc(S(=O)(=O)O)c2)c2cc(C)c(O)c(C(=O)O)c2)C=C(C(=O)O)C1=O

>  <readout.units>
%

>  <growth inhibition>
4.4

$$$$
>  <compound>
O=C(Nc1ccc(Cl)cc1)NS(=O)(=O)c1coc2ccccc2c1=O

>  <readout.units>
%

>  <growth inhibition>
9.65

$$$$
>  <compound>
CCN(C(=S)Nc1cccc(OC)c1)c1ccccc1

>  <readout.units>
%

>  <growth inhibition>
-17.2

$$$$
>  <compound>
O/N=C(/CC(O)(C(F)(F)F)C(F)(F)F)c1ccccc1

>  <readout.units>
%

>  <growth inhibition>
-9.1

$$$$
>  <compound>
C=CCC12CCC(=O)[C@@]1(C)CC=C(O)C2=O (stereo partly specified)

>  <readout.units>
%

>  <growth inhibition>
8.6

$$$$

// next entry
Query: What value of measured growth inhibition is listed for `Fc1ccc(-c2cc(-c3cc(-c4ccc(F)cc4)n[nH]3)[nH]n2)cc1` ?
Response: 20.6

* * *

experiment.summary: NCI Yeast Anticancer Drug Screen. Data for the rad50 strain (AID 155);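 further: 0% = growth of vehicle-only cultures of the same strain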
applied.conditions: S. cerevisiae rad50 strain growth inhibition; at 50.0 µM
Compounds without any hit were thinned out: in the full panel of roughly 79,000, 15% have a hit. Activity calls are given as the source filed them. Cut-off read from the data, not from the text of the source: active = growth inhibition above about 70%; inactive = the rest.
Hi there, use one of these labels in your reply, thanks! 1 (yes) (active), 0 (no) (inactive)

Please review the following examples before continuing.
>  <molecule>
NC(=O)Nc1ccccc1

>  <assigned.label>
0 (no)

$$$$
>  <molecule>
CCCCCCCCCCCCCCC[N+](C)(C)C

>  <assigned.label>
1 (yes)

$$$$
>  <molecule>
NC(=O)c1cc([N+](=O)[O-])cnc1Sc1ncccn1

>  <assigned.label>
0 (no)

$$$$
>  <molecule>
CCOC(=O)C(=O)C(C(=O)OCC)C(C)C(=O)OCC (stereo not drawn)

>  <assigned.label>
0 (no)

$$$$

Query: Could you check what this test reported for O=C(O)CC(Nc1ncccn1)C(=O)O (stereo not drawn) ?
Response: 0 (no)

* * *

experiment.summary: NCI Yeast Anticancer Drug Screen. Data for the sgs1 mgt1 strain (AID 161);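 further: 0% = growth of cultures given vehicle only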
applied.conditions: S. cerevisiae sgs1 mgt1 strain, at 50.0 µM, stronger effect = higher value
This is part of a sample that, as a whole, favours compounds with a hit. Of some 79,000 tested, about 15% had one in any assay.
property.name: growth inhibition (%)
API: value field is a number in %; no unit string.

These solved cases illustrate the format of a correct answer.
>  <compound>
CCOC(=O)Nc1cccc(F)c1

>  <readout.units>
%

>  <growth inhibition>
22.9

$$$$
>  <compound>
COc1ccc2c(c1)CC/C(=C\C1(Sc3ccccc3)CC1)C2O (stereo unspecified)

>  <readout.units>
%

>  <growth inhibition>
-10.2

$$$$
>  <compound>
NCCNCCCCCCCCCCCCOS(=O)(=O)O

>  <readout.units>
%

>  <growth inhibition>
-6.35

$$$$

Query: Reported growth inhibition, compound `CCO[Si](C)(CCC#N)OCC` : ____
Response: -12.7

Query: And for `COc1ccc(NC(=O)CC(=O)N/N=C(/C)c2cc3cc(N=Nc4ccccc4Cl)ccc3oc2=O)cc1` ?
Response: 24.1

Query: Cool, now `C[P+](C)(C)c1ccccc1`
Response: 4.95

Query: Consider next the compound CC(c1ccc(N)cc1)n1cnc2c(Cl)ncnc21 (stereo unspecified) in the same way.
Response: 4.1

Query: Item: `S=C1SC(=Nc2ccccc2)C(=Nc2ccccc2)N1c1ccc2ccccc2c1`
Response: 28.5

Query: Same question, `O=c1[nH]nc(-c2ccccc2)n1/N=C/c1c(O)ccc2ccccc12` this time
Response: 9.15

Query: Please do the same for `CC1(C)C2=CCCC(=O)[C@@]2(C)CC[C@@H]1O` as well.
Response: -4.9

Query: Field entry: `COC(=O)c1cccc(O)c1O`
Response: -1.5

Query: Now the compound `[N-]=[N+]=NC(=O)c1cnn(-c2ccccc2)c1N`
Response: 9.4

Query: How about `COc1cc(/C=C/C=C2\CCC/C(=C\C=C\c3ccc(O)c(OC)c3)C2=O)ccc1O` ?
Response: 11.2

Query: Same thing, different compound: `CCOc1ncc(C(=O)c2ccc(C)cc2)c(OCC)n1`
Response: -6.2

Source listed as PubChem BioAssay (NCI).
